Ref: paper PMC4447944

- SYSTEM: hBIKE (Homo sapiens, UniProt Q9NSY1)
- Sequence (Q9NSY1 whole entry): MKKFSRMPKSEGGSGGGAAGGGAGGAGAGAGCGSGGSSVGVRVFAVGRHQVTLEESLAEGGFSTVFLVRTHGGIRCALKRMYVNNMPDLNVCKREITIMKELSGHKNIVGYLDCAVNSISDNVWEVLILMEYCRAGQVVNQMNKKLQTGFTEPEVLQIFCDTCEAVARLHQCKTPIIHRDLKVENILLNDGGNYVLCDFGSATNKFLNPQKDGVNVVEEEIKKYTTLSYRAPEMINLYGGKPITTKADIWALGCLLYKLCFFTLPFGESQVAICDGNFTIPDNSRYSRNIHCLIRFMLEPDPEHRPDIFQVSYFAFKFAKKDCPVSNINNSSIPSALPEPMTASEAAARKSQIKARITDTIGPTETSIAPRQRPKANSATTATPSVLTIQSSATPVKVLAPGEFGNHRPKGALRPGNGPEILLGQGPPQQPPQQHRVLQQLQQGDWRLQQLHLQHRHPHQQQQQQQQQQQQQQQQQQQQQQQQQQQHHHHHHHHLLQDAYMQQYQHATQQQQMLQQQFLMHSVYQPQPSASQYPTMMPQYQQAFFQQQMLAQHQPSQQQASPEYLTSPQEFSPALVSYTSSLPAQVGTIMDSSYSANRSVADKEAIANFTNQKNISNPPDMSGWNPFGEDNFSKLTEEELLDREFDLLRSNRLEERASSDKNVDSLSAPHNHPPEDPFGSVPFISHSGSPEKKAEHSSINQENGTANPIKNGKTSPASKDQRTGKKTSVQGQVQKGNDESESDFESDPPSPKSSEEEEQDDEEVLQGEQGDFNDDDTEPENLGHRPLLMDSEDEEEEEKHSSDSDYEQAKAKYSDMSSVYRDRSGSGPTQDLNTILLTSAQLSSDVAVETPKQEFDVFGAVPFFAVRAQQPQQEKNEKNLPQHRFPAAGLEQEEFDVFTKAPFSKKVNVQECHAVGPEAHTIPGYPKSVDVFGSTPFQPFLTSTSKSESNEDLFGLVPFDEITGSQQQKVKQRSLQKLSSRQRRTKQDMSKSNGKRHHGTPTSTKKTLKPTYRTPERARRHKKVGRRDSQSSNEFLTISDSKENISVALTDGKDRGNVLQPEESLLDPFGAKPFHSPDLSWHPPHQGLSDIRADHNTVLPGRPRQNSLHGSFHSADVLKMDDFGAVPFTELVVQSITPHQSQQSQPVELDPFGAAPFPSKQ
PARAMETER: IC50

Return value of IC50 for input Cc1cn(CCN2CCN(c3ccccc3-c3cc(C#N)cc(C(=O)NCCCN4CCCC4)c3)CC2)c2ccccc12 , no commentary.
> 20 µM

====

PARAMETER: IC50

System hMET (Homo sapiens). Read-out IC50. Item Cc1cn(CCN2CCN(c3ccccc3-c3cc(C#N)cc(C(=O)NCCCN4CCCC4)c3)CC2)c2ccccc12 . Report value.
> 20 µM

====

Target sequence: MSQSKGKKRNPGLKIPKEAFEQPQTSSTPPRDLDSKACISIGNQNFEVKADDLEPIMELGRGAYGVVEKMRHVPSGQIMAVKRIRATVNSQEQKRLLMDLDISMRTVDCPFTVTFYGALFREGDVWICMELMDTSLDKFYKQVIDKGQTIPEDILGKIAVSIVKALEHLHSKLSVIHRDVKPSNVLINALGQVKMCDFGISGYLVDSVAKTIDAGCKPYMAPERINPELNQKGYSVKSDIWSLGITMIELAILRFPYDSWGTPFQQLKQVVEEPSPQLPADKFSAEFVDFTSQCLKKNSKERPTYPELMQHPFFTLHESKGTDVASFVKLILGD
pIC50: −log10 of the molar value.
PARAMETER: pIC50

Return value of pIC50 for input Cc1cn(CCN2CCN(c3ccccc3-c3cc(C#N)cc(C(=O)NCCCN4CCCC4)c3)CC2)c2ccccc12 [LLY-507] , no commentary.
< 4.70

====

- SYSTEM: hEGFR(L861Q) (Homo sapiens, UniProt P00533, L861Q)
- MEASUREMENT_NOTES: KINOMEscan
PARAMETER: IC50

System hEGFR(L861Q) (Homo sapiens, UniProt P00533, L861Q). Read-out IC50. Item Cc1cn(CCN2CCN(c3ccccc3-c3cc(C#N)cc(C(=O)NCCCN4CCCC4)c3)CC2)c2ccccc12 . Report value.
> 20 µM

====

- SYSTEM: hCSNK2A1 (Homo sapiens, UniProt P68400)
- Sequence (P68400 whole entry): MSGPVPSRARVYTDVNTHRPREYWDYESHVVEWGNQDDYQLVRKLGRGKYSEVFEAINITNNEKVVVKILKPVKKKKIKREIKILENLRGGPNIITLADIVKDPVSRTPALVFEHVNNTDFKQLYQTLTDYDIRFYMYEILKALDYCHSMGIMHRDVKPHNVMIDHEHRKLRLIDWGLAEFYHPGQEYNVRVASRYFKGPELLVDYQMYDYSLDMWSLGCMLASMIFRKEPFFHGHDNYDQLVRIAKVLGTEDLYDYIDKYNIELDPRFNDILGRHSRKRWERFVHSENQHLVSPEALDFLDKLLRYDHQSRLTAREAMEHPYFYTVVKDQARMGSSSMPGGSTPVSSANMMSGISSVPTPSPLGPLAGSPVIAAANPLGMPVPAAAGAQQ
PARAMETER: IC50

Return value of IC50 for input Cc1cn(CCN2CCN(c3ccccc3-c3cc(C#N)cc(C(=O)NCCCN4CCCC4)c3)CC2)c2ccccc12 , no commentary.
> 20 µM

====

- SYSTEM: hKIT-autoinhibited (Homo sapiens, UniProt P10721)
- Sequence (P10721 544-976 limits assumed): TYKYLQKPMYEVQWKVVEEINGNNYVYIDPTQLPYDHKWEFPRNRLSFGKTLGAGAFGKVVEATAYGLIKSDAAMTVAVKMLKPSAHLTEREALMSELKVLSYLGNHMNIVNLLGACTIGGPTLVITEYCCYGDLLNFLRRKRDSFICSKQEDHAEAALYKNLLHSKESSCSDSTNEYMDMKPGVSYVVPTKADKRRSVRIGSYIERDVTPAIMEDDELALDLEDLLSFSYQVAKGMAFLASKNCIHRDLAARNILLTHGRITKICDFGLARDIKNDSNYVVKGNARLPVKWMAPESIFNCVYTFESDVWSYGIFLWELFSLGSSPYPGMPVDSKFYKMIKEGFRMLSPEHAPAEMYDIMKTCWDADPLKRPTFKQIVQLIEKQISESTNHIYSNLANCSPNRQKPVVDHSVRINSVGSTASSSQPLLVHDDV
PARAMETER: IC50

Return value of IC50 for input Cc1cn(CCN2CCN(c3ccccc3-c3cc(C#N)cc(C(=O)NCCCN4CCCC4)c3)CC2)c2ccccc12 [LLY-507] , no commentary.
> 20 µM

====

pIC50: −log10 of the molar value.
PARAMETER: pIC50

System UniProt Q15569. Read-out pIC50. Item Cc1cn(CCN2CCN(c3ccccc3-c3cc(C#N)cc(C(=O)NCCCN4CCCC4)c3)CC2)c2ccccc12 . Report value.
Sequence (Q15569 whole entry): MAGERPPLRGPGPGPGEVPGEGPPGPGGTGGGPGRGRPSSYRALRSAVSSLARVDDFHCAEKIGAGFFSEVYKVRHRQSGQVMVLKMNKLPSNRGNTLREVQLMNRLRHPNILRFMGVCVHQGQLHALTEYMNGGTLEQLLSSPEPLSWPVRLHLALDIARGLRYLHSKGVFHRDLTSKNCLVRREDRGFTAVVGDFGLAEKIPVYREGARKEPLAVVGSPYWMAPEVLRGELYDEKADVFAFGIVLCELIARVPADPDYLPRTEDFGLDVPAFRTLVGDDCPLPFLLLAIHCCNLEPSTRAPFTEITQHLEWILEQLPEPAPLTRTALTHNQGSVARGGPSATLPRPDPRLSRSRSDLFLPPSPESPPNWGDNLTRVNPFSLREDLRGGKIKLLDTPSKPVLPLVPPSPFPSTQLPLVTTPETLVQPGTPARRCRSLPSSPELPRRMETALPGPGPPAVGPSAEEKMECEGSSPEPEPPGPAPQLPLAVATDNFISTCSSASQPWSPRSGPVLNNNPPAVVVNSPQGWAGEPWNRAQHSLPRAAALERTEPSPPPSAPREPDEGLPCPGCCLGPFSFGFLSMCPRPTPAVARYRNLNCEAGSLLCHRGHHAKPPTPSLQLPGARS
< 4.70

====

- SYSTEM: hABL1(T315I) (Homo sapiens, UniProt P00519, T315I)
- MEASUREMENT_NOTES: KINOMEscan
PARAMETER: IC50

Return value of IC50 for input Cc1cn(CCN2CCN(c3ccccc3-c3cc(C#N)cc(C(=O)NCCCN4CCCC4)c3)CC2)c2ccccc12 , no commentary.
> 20 µM

====

pIC50: −log10 of the molar value.
PARAMETER: pIC50

System hMEK2 (Homo sapiens, UniProt P36507). Read-out pIC50. Item Cc1cn(CCN2CCN(c3ccccc3-c3cc(C#N)cc(C(=O)NCCCN4CCCC4)c3)CC2)c2ccccc12 . Report value.
< 4.70

====

- SYSTEM: hCHEK2 (Homo sapiens, UniProt O96017)
- Sequence (O96017 whole entry): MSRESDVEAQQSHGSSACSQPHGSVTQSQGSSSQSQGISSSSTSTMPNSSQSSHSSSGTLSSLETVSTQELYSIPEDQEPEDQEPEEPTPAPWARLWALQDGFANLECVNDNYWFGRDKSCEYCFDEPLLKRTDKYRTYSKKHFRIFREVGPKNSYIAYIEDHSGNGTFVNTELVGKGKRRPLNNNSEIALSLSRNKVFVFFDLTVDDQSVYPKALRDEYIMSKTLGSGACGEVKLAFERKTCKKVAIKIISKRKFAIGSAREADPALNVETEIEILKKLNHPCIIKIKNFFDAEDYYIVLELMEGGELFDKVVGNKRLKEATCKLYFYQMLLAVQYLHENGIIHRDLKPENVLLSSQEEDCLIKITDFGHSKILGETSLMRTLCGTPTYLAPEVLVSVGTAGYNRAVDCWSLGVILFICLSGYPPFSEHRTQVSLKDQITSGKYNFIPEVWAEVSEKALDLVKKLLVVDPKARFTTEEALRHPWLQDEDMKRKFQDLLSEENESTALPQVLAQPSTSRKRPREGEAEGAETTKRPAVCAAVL
PARAMETER: IC50

Return value of IC50 for input Cc1cn(CCN2CCN(c3ccccc3-c3cc(C#N)cc(C(=O)NCCCN4CCCC4)c3)CC2)c2ccccc12 [LLY-507] , no commentary.
> 20 µM

====

- SYSTEM: UniProt:Q13554
- Sequence (Q13554 whole entry): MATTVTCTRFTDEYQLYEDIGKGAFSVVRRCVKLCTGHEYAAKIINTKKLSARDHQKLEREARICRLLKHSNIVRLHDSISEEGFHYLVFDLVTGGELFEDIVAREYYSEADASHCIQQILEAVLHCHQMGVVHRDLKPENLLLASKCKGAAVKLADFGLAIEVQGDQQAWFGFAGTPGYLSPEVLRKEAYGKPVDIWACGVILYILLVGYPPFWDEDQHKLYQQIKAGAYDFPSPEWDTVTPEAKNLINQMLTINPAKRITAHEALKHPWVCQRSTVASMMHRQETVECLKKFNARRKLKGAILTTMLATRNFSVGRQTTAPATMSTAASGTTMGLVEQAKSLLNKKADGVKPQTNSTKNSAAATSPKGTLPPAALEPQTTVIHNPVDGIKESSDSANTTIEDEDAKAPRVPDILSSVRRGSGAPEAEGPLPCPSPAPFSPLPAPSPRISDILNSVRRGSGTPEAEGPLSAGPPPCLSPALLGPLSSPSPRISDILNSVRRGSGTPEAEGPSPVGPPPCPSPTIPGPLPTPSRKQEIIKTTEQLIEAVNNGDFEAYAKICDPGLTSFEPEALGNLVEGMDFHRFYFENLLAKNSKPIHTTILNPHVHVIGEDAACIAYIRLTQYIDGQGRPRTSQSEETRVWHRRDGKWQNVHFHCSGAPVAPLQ
pIC50: −log10 of the molar value.
PARAMETER: pIC50

Return value of pIC50 for input Cc1cn(CCN2CCN(c3ccccc3-c3cc(C#N)cc(C(=O)NCCCN4CCCC4)c3)CC2)c2ccccc12 [LLY-507] , no commentary.
< 4.70

====

- SYSTEM: UniProt:Q8TDC3
- Sequence (Q8TDC3 1-778): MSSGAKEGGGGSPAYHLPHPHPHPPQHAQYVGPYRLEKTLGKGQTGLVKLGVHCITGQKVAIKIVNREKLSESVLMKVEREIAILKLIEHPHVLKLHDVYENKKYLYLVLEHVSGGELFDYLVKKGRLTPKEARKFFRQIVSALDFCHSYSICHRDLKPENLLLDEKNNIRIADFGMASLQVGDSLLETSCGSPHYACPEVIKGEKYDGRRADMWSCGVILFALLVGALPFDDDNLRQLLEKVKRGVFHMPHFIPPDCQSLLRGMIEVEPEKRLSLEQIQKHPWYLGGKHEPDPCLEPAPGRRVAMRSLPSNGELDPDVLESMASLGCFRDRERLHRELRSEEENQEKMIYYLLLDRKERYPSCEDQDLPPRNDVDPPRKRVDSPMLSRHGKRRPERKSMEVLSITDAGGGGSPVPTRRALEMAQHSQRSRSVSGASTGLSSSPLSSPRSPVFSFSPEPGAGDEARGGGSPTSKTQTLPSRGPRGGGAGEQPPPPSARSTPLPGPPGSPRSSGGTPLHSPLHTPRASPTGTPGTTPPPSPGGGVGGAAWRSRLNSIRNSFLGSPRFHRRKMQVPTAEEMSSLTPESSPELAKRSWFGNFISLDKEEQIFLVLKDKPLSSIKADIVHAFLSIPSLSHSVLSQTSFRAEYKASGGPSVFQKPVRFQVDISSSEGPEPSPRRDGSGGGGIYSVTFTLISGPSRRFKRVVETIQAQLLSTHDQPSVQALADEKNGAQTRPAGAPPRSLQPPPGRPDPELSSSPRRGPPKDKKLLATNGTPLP
pIC50: −log10 of the molar value.
PARAMETER: pIC50

System UniProt:Q8TDC3. Read-out pIC50. Item Cc1cn(CCN2CCN(c3ccccc3-c3cc(C#N)cc(C(=O)NCCCN4CCCC4)c3)CC2)c2ccccc12 . Report value.
< 4.70

====

pIC50: −log10 of the molar value.
PARAMETER: pIC50

System hHCK (Homo sapiens, UniProt P08631). Read-out pIC50. Item Cc1cn(CCN2CCN(c3ccccc3-c3cc(C#N)cc(C(=O)NCCCN4CCCC4)c3)CC2)c2ccccc12 . Report value.
< 4.70

====

- SYSTEM: hMAPKAPK2 (Homo sapiens)
- Sequence (P49137 whole entry): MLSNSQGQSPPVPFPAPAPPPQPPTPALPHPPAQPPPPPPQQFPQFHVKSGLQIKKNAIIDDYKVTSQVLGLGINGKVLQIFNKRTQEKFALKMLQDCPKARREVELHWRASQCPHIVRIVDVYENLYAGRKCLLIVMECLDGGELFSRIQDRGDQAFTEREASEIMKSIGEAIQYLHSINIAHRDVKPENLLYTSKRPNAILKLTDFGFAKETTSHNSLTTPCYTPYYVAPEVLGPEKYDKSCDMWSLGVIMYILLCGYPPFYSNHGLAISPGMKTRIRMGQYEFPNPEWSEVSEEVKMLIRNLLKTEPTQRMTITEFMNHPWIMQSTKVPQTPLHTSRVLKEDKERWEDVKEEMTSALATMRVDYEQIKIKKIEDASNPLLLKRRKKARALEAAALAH
pIC50: −log10 of the molar value.
PARAMETER: pIC50

Return value of pIC50 for input Cc1cn(CCN2CCN(c3ccccc3-c3cc(C#N)cc(C(=O)NCCCN4CCCC4)c3)CC2)c2ccccc12 , no commentary.
< 4.70

====

- SYSTEM: hBLK (Homo sapiens, UniProt P51451)
- Sequence (P51451 whole entry): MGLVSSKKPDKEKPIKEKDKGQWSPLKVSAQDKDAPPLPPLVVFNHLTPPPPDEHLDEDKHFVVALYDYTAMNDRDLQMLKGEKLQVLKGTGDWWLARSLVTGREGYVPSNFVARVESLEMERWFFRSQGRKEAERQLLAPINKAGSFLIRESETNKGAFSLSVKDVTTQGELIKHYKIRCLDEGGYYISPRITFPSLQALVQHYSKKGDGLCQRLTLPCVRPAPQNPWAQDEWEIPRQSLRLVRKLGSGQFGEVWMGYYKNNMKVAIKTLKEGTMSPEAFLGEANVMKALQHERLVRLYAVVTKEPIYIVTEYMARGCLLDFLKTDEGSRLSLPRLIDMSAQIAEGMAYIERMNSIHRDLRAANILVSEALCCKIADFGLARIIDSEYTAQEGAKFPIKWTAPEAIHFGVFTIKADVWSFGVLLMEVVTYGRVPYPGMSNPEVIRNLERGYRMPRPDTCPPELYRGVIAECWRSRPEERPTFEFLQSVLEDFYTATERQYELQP
pIC50: −log10 of the molar value.
PARAMETER: pIC50

Return value of pIC50 for input Cc1cn(CCN2CCN(c3ccccc3-c3cc(C#N)cc(C(=O)NCCCN4CCCC4)c3)CC2)c2ccccc12 , no commentary.
< 4.70

====

- SYSTEM: hABL1(pY253F) (Homo sapiens, UniProt P00519, Y253F)
- MEASUREMENT_NOTES: KINOMEscan
pIC50: −log10 of the molar value.
PARAMETER: pIC50

Return value of pIC50 for input Cc1cn(CCN2CCN(c3ccccc3-c3cc(C#N)cc(C(=O)NCCCN4CCCC4)c3)CC2)c2ccccc12 [LLY-507] , no commentary.
< 4.70

====

Sequence of the target: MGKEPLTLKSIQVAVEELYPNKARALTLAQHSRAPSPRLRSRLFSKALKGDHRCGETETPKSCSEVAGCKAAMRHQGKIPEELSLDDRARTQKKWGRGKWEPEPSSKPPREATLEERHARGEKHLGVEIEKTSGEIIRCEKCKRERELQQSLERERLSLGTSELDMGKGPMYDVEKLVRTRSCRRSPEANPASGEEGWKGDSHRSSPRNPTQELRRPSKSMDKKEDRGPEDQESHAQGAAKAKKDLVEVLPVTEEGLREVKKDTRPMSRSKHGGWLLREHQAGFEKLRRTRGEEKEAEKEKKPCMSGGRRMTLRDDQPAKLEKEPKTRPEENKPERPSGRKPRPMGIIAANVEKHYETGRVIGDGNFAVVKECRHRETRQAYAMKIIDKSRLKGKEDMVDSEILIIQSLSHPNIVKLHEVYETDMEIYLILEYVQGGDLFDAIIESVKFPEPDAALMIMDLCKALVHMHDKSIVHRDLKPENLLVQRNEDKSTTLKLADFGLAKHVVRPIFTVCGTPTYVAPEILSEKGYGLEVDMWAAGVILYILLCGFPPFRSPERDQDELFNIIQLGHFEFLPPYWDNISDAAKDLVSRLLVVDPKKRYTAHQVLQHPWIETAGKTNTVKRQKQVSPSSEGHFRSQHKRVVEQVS
PARAMETER: IC50

Return value of IC50 for input Cc1cn(CCN2CCN(c3ccccc3-c3cc(C#N)cc(C(=O)NCCCN4CCCC4)c3)CC2)c2ccccc12 , no commentary.
> 20 µM
